# target or system: Ae. aegypti NPYLR7 (Aedes aegypti)
# experiment notes: In vitro calcium (GCaMP6s) FLIPR assay in HEK293T cells transfected with NPYLR7
# Format: cell-based
# condition context: Figure 1E Summary, third list (n = 39); read-out: Reported Metric (Summary list)
# Method: The in vitro screening assay was adapted from, and carried out at HD Biosciences (HDB, Shanghai) as follows: HEK293T (Thermo Fisher Scientific) cells were grown in Dulbecco’s modified Eagle medium (DMEM) (high glucose, with glutamine), 10% fetal bovine serum, 1% penicillin–streptomycin (Pen/Strep), seeded in a 75 cm^2 flask, and incubated at 37 °C and 5% CO2. […] Data were collected in raw fluorescence units (RFU). […]
pEC50: −log10 of the molar value.
Returns the class for an entry based on its pEC50. Class ranges: L: < 6; M: ≥ 6 and < 7; H: ≥ 7

Class label required: CCCOc1ccc2c(C)nc(NC(=N)N)nc2c1 [TDI-014178]
L

Class label required: COc1ccc(COc2ccc3c(C)nc(NC(=N)N)nc3c2)cc1OC [TDI-014180]
H

Class label required: CNc1nc(NC(=N)N)nc2cc(OCc3ccc(OC)cc3)c(OC)cc12 [TDI-014185]
H

Class label required: COc1ccc(OCc2ccc3c(C)nc(NC(=N)N)nc3c2)cc1 [TDI-014175]
M

Class label required: Cc1nc(NC(=N)N)nc2cc(OC(F)(F)F)ccc12 [TDI-012613]
L

Class label required: Cc1nc(NC(=N)N)nc2cc(OC(F)F)ccc12 [TDI-012615]
L

Class label required: COc1cc2c(C)nc(NC(=N)N)nc2cc1OCc1ccccc1 [TDI-012943]
H

Class label required: Cc1nc(NC(=N)N)nc2cc(OCc3ccc(OC(F)F)cc3)ccc12 [TDI-014170]
L

Class label required: CNc1nc(NC(=N)N)nc2cc(OCc3ccc(OC)cc3)ccc12 [TDI-014190]
H

Class label required: COc1ccc(COc2ccc3c(C)nc(NC(=N)N)nc3c2)cc1 [TDI-013000]
H

Class label required: CNc1nc(NC(=N)N)nc2cc(OCc3ccccc3)c(OC)cc12 [TDI-014184]
M

Class label required: Cc1nc(NC(=N)N)nc2cc(OCc3ccc(S(C)(=O)=O)cc3)ccc12 [TDI-014182]
M

Class label required: COc1ccc2c(C)nc(NC(=N)N)nc2c1 [TDI-012631, reference compound]
L

----------
# Tested on: Aedes aegypti (Orlando strain) females
# experiment notes: Biting assay (mouse-in-cage)
# Assay type: in vivo
# condition context: fed 1 μM
Can you tell me Median (percent freshly blood-fed) for the items I'm about to list?

Given the entry `Cc1nc(NC(=N)N)nc2cc(OCc3ccc(OC(F)F)cc3)ccc12` , report its measured Median (percent freshly blood-fed).
59.60, n=9%

Given the entry `CNc1nc(NC(=N)N)nc2cc(OCC3CCOCC3)ccc12` , report its measured Median (percent freshly blood-fed).
50.00, n=11%

Given the entry `Cc1nc(NC(=N)N)nc2cc(N3CCc4ccccc4C3)ccc12` , report its measured Median (percent freshly blood-fed).
54.25, n=9%

Given the entry `CNc1nc(NC(=N)N)nc2cc(OCc3ccccc3)c(OC)cc12` , report its measured Median (percent freshly blood-fed).
47.00, n=11%

----------
Can you tell me activation at 33.3333 µM for the items I'm about to list?
# target or system: Ae. aegypti NPYLR7 (Aedes aegypti, UniProt U5N1H5)
# Sequence (U5N1H5 entry or part of it): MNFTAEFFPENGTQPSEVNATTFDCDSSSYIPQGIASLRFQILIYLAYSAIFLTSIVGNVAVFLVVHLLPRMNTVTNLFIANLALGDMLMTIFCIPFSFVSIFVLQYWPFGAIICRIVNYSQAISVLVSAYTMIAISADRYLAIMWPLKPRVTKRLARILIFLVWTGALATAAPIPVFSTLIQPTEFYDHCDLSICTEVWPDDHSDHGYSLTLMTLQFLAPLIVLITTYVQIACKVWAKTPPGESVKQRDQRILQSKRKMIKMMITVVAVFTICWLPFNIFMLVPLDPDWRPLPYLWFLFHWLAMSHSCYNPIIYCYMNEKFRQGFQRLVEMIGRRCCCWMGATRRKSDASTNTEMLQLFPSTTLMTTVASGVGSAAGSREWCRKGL
# experiment notes: In vitro calcium (GCaMP6s) FLIPR assay in HEK293T cells transfected with NPYLR7
# Assay type: cell-based
# condition context: HEK-293T, 33.3333 uM; single replicate, normalised response
Express it in %; write the number only.

Given the entry `Cc1nc(NC(=N)N)nc2cc(OCc3ccc(S(C)(=O)=O)cc3)ccc12` , report its measured activation at 33.3333 µM.
80.3

Given the entry `CCOc1ccc(COc2ccc3c(C)nc(NC(=N)N)nc3c2)cc1` , report its measured activation at 33.3333 µM.
131

Given the entry `Cc1nc(NC(=N)N)nc2cc(OCc3cccnn3)ccc12` , report its measured activation at 33.3333 µM.
23.1

Given the entry `COc1ccc(COc2ccc3c(C)nc(NC(=N)N)nc3c2)cn1` , report its measured activation at 33.3333 µM.
101

Given the entry `COc1ccc(COc2ccc3c(C)nc(NC(=N)N)nc3c2)cc1OC` , report its measured activation at 33.3333 µM.
81.8

Given the entry `CNc1nc(NC(=N)N)nc2cc(OCc3ccc(OC)cc3)ccc12` , report its measured activation at 33.3333 µM.
92.1

Given the entry `Cc1nc(NC(=N)N)nc2cc(OCC3CCCCC3)ccc12` , report its measured activation at 33.3333 µM.
94.5

Given the entry `Cc1nc(NC(=N)N)nc2cc(OCc3ccc(OC(F)F)cc3)ccc12` , report its measured activation at 33.3333 µM.
99.8

Given the entry `Cc1nc(NC(=N)N)nc2cc(OCC(F)(F)F)ccc12` , report its measured activation at 33.3333 µM.
80.4

Given the entry Cc1nc(NC(=N)N)nc2cc(OCC3CCOC3)ccc12 (stereo not drawn) , report its measured activation at 33.3333 µM.
92.2

Given the entry `CCCOc1ccc2c(C)nc(NC(=N)N)nc2c1` , report its measured activation at 33.3333 µM.
96.4

Given the entry `Cc1nc(NC(=N)N)nc2cc(OCc3ccc(OC(F)(F)F)cc3)ccc12` , report its measured activation at 33.3333 µM.
89.6

----------
Can you tell me activation at 1.2346 µM for the items I'm about to list?
# target or system: Ae. aegypti NPYLR7 (Aedes aegypti)
# experiment notes: In vitro calcium (GCaMP6s) FLIPR assay in HEK293T cells transfected with NPYLR7
# Assay type: cell-based
# condition context: HEK-293T, 1.2346 uM; single replicate, normalised response
Provide the measurement as a number trailed by its unit.

Given the entry `CNc1nc(NC(=N)N)nc2cc(OCc3ccc(OC)cc3)ccc12` , report its measured activation at 1.2346 µM.
77.5%

Given the entry `COc1ccc(OCc2ccc3c(C)nc(NC(=N)N)nc3c2)cc1` , report its measured activation at 1.2346 µM.
65.9%

Given the entry `Cc1nc(NC(=N)N)nc2cc(OCC3CC3)ccc12` , report its measured activation at 1.2346 µM.
32.9%

Given the entry `CCCOc1ccc2c(C)nc(NC(=N)N)nc2c1` , report its measured activation at 1.2346 µM.
42.7%

Given the entry `COc1ccc(COc2ccc3c(C)nc(NC(=N)N)nc3c2)cn1` , report its measured activation at 1.2346 µM.
53.6%

Given the entry `Cc1nc(NC(=N)N)nc2cc(OCc3ccc(S(C)(=O)=O)cc3)ccc12` , report its measured activation at 1.2346 µM.
62.2%

----------
Can you tell me activation at 100 µM for the items I'm about to list?
# target or system: Ae. aegypti NPYLR7 (Aedes aegypti)
# experiment notes: In vitro calcium (GCaMP6s) FLIPR assay in HEK293T cells transfected with NPYLR7
# Type: cell-based
# condition context: HEK-293T, 100 uM; single replicate of the dose-response curve, normalised response
# Experimental: The in vitro screening assay was adapted from, and carried out at HD Biosciences (HDB, Shanghai) as follows: HEK293T (Thermo Fisher Scientific) cells were grown in Dulbecco’s modified Eagle medium (DMEM) (high glucose, with glutamine), 10% fetal bovine serum, 1% penicillin–streptomycin (Pen/Strep), seeded in a 75 cm^2 flask, and incubated at 37 °C and 5% CO2. […] Data were collected in raw fluorescence units (RFU). […]
Express it in %; write the number only.

Given the entry Cc1nc(NC(=N)N)nc2cc(OCc3ccc(OC(F)F)cc3)ccc12 [TDI-014170] , report its measured activation at 100 µM.
128

Given the entry Cc1nc(NC(=N)N)nc2cc(OCC3CCOC3)ccc12 (stereo not shown) [TDI-014174] , report its measured activation at 100 µM.
102

Given the entry Cc1nc(NC(=N)N)nc2cc(OCC3CCCCO3)ccc12 (stereo not shown) [TDI-014192] , report its measured activation at 100 µM.
67.4

Given the entry Cc1nc(NC(=N)N)nc2cc(OCC3CCCCC3)ccc12 [TDI-014169] , report its measured activation at 100 µM.
113

----------
# target or system: Ae. aegypti NPYLR7 (Aedes aegypti, UniProt U5N1H5)
# experiment notes: In vitro calcium (GCaMP6s) FLIPR assay in HEK293T cells transfected with NPYLR7
# Type: cell-based
# condition context: EC50 of the individual assay date/plate (assay date); read-out: EC50
# Protocol: The in vitro screening assay was adapted from, and carried out at HD Biosciences (HDB, Shanghai) as follows: HEK293T (Thermo Fisher Scientific) cells were grown in Dulbecco’s modified Eagle medium (DMEM) (high glucose, with glutamine), 10% fetal bovine serum, 1% penicillin–streptomycin (Pen/Strep), seeded in a 75 cm^2 flask, and incubated at 37 °C and 5% CO2. […] Data were collected in raw fluorescence units (RFU). […]
Please assign Criterion not met whenever EC50 is at or above 9 µM, and Criterion met whenever it is below.

hey, is EC50 for Cc1nc(NC(=N)N)nc2cc(OC3CCCc4ccccc43)ccc12 (centres unmarked) lower than 9 µM or not?
Criterion not met

hey, is EC50 for `CCOc1cc2c(C)nc(NC(=N)N)nc2cc1OCc1ccccc1` lower than 9 µM or not?
Criterion met

hey, is EC50 for Cc1nc(NC(=N)N)nc2cc(OCC3CCOC3)ccc12 (centres unmarked) lower than 9 µM or not?
Criterion met

hey, is EC50 for Cc1nc(NC(=N)N)nc2cc(OCC3CCCOC3)ccc12 (centres unmarked) lower than 9 µM or not?
Criterion met

hey, is EC50 for `Cc1nc(NC(=N)N)nc2cc(OCc3cnccn3)ccc12` lower than 9 µM or not?
Criterion met
